Overview of reported P3_MyD88 Rank (after) across a group of sequences:
biological target: MyD88^TIR (Homo sapiens); construct: MyD88 (residues 148–296); 6xHis; made in house; host or cells: E. coli BL21 (DE3); assay: T‐Surf phage library (P8 and P3) selection against MyD88^TIR, four rounds, NGS read counts; assay type: binding; conditions: P3 library, selection against MyD88, rank by count after grouping
Please reply with the value in numeric form only.

Here are 3 sequences together with their reported answers.
ordered_residues=LVAHEISKKLKIFATM target_under_test="MyD88^TIR (Homo sapiens)" observed_value=709
ordered_residues=RFWESQRYMKPNVSHT target_under_test="MyD88^TIR (Homo sapiens)" observed_value=708
ordered_residues=NQWRNALTAAANLGGL target_under_test="MyD88^TIR (Homo sapiens)" observed_value=701

Given the entry `PEKDNGGENAFINTL` , what P3_MyD88 Rank (after) was observed with MyD88^TIR (Homo sapiens)?
731

Follow-up entry: `LVAHEISKMLKIFETI`
681

Follow-up entry: `RTLFENLWESVYNISQ`
690

Follow-up entry: `LAANEIRKEMKTLATI`
680

Follow-up entry: `NELIDVGHSYSMHRGG`
743

Follow-up entry: `SSFRECLWSLPELSKK`
699

---

molecular target: MyD88^TIR (Homo sapiens, UniProt Q99836); construct: MyD88 (residues 148–296); 6xHis; made in house; host or cells: E. coli BL21 (DE3); assay: T‐Surf phage library (P8 and P3) selection against MyD88^TIR, four rounds, NGS read counts; type: binding; conditions: P8 library, selection against MyD88, rank before grouping
Sequence (Q99836 148-296): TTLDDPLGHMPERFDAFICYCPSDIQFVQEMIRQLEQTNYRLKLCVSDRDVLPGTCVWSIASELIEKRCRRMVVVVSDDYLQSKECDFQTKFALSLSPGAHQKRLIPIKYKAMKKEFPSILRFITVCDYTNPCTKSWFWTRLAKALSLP
Give true (1) when the value for P8_MyD88 Rank (before) is at least 3000. Give false (0) when it is less.

ordered_residues=WALYELLHILHARELF class_name="false (0)"
ordered_residues=KIARCMIFGVFWKAP class_name="true (1)"
ordered_residues=IDDDHLTYLVRLLLSLL class_name="true (1)"
ordered_residues=DPQDLDWFLNVWLTW class_name="false (0)"

Given `DYANSSWALDELWLIL` , state whether its P8_MyD88 Rank (before) is at least 3000.
false (0)

Follow-up entry: `LGYHWNDREYFLDIED`
true (1)

Follow-up entry: `YLRADDSWFWEKLLQIA`
false (0)

Follow-up entry: `DPQDLDWLYERPVSQF`
false (0)

Follow-up entry: `YIIWFEDIQLIHLLCD`
false (0)

Follow-up entry: `DLLLSEFQSIFARRTV`
false (0)

Follow-up entry: `LGYHWNDGEYFVGIKD`
true (1)

Follow-up entry: `DEAWFLTKLRISLEHL`
false (0)

Follow-up entry: `LGYHWIGWEYCVGIED`
true (1)

Follow-up entry: `DWVWEHFVGIEDHIK`
false (0)

Follow-up entry: `WDFASNMEQFWDRLIRMIE`
false (0)

---

target: MAL^TIR (Homo sapiens, UniProt P58753); construct: MAL (residues 79–221); 6xHis; made in house; host or cells: E. coli BL21 (DE3); test: T‐Surf phage library (P8 and P3) selection against MAL^TIR, four rounds, NGS read counts; format: binding; details: P3 library, selection against MAL, rank before grouping
Sequence (P58753 79-221): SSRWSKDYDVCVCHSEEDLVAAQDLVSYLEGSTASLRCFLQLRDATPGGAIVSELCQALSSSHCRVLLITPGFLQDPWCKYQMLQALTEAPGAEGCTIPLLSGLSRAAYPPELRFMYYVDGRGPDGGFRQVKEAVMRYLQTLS
property-measured: P3_MAL Rank (before)
Please reply with the value in numeric form only.

ordered_residues=RGFLSHLRQHLKAKDH observed_value=2386

Requested read-out: P3_MAL Rank (before). Entry: `VRVVDDGSVSPLEM`
1691

Follow-up entry: `SNLRPKVLNYLMRTKI`
1326

Follow-up entry: `RLLKCTEALHQFHNWV`
2482

Follow-up entry: `LKVESWRQALKQRAL`
2283

Follow-up entry: `MSHLYQGLNNRGIFIF`
2944

Follow-up entry: `SLRKNLLSNLIEECKR`
3097

---

target: MyD88^TIR (Homo sapiens, UniProt Q99836); construct: MyD88 (residues 148–296); 6xHis; made in house; host or cells: E. coli BL21 (DE3); test: T‐Surf phage library (P8 and P3) selection against MyD88^TIR, four rounds, NGS read counts; type: binding; settings: P8 library, selection against MyD88, rank after grouping
property-measured: P8_MyD88 Rank (after)
Please reply with the value in numeric form only.

Here are 5 sequences together with their reported answers.
ordered_residues=WALEELRLIMELHSV target_under_test="MyD88^TIR (Homo sapiens, UniProt Q99836)" observed_value=504
ordered_residues=DQQDLDWFYERLVSVF target_under_test="MyD88^TIR (Homo sapiens, UniProt Q99836)" observed_value=505
ordered_residues=VANILGYHWMDWVYFV target_under_test="MyD88^TIR (Homo sapiens, UniProt Q99836)" observed_value=563
ordered_residues=WDFASSSWALDELLRILY target_under_test="MyD88^TIR (Homo sapiens, UniProt Q99836)" observed_value=550
ordered_residues=DEAWFLTKLRISLEHL target_under_test="MyD88^TIR (Homo sapiens, UniProt Q99836)" observed_value=576

Requested read-out: P8_MyD88 Rank (after). Entry: `YIIWFEDIQLIHLLCD`
564

Follow-up entry: `VSHLIDAFERYGIMFFIDT`
572

Follow-up entry: `DPQDLEWFYERLLAR`
515

Follow-up entry: `DPQDLDWLYERPVSQF`
552

Follow-up entry: `SAASDDFWDGLIRMIE`
502

Follow-up entry: `YASCDDFDYYLETAVLLRHL`
570

Follow-up entry: `DPLVMVWLYVRPVSLF`
556

Follow-up entry: `DWVWEHFVGIEDHIK`
513

Follow-up entry: `LGYRLMFWDYFVGIVD`
548

Follow-up entry: `DVLYWALTEAGLRGFR`
578

Follow-up entry: `YAASPRWLDDLVNIVG`
521

Follow-up entry: `NYGSNSWALNKLLEIL`
492

---

Overview of reported Rank (before) across a group of sequences:
target: MyD88^TIR (Homo sapiens); construct: MyD88 (residues 148–296); 6xHis; made in house; host or cells: E. coli BL21 (DE3); experiment: T‐Surf phage library (P8 and P3) selection against MyD88^TIR, four rounds, NGS read counts; format: binding; settings: P8_MyD88: rank by count before grouping
Please reply with the value in numeric form only.

Here are 5 sequences together with their reported answers.
ordered_residues=WRTALTKVGNMLGWIS observed_value=897
ordered_residues=HWIEWEYFVGIEEHIK observed_value=3541
ordered_residues=SWYLDEVAKIIDAMKE observed_value=144
ordered_residues=DPQELDGFYERLVSLF observed_value=3015
ordered_residues=SPWALYELVEILTAYK observed_value=251

Requested read-out: Rank (before). Entry: `NYASSSWALDELLRILY`
238

---

biological target: MyD88^TIR (Homo sapiens, UniProt Q99836); construct: MyD88 (residues 148–296); 6xHis; made in house; host or cells: E. coli BL21 (DE3); assay: T‐Surf phage library (P8 and P3) selection against MyD88^TIR, four rounds, NGS read counts; format: binding; conditions: P3_MyD88: rank by count before grouping
Overview of reported Rank (before) across a group of sequences:
Please reply with the value in numeric form only.

Here are 2 sequences together with their reported answers.
ordered_residues=GFLYHAFAREGIKIFM observed_value=1793
ordered_residues=EWIREQLRPELQERLP observed_value=2160

Requested read-out: Rank (before). Entry: `EWLREQLRSARKERLP`
2126

Follow-up entry: `SELRVVDKETDKIQTPLKNA`
3051

Follow-up entry: `YLKWGYPWFWSKLRYAM`
575

Follow-up entry: `AVDKETDKIQTPLEM`
601

Follow-up entry: `KERPFGAQRAEKCVP`
3673

Follow-up entry: `NELVHVWSSKANSLVGQ`
1250

---

Overview of reported Rank (before) across a group of sequences:
target: MyD88^TIR (Homo sapiens); construct: MyD88 (residues 148–296); 6xHis; made in house; host or cells: E. coli BL21 (DE3); test: T‐Surf phage library (P8 and P3) selection against MyD88^TIR, four rounds, NGS read counts; assay type: binding; conditions: P8_MyD88: rank by NGS read count before grouping
Please reply with the value in numeric form only.

Here are 5 sequences together with their reported answers.
ordered_residues=YYDSRWALNELLEIL property_measured="Rank (before)" observed_value=1682
ordered_residues=YELDFSHFWLFVGQAP property_measured="Rank (before)" observed_value=1929
ordered_residues=LGYHWKEWEHFVGIED property_measured="Rank (before)" observed_value=3310
ordered_residues=YITWFEDFQQILLFWI property_measured="Rank (before)" observed_value=2117
ordered_residues=PHDLDWLYERPVRLIL property_measured="Rank (before)" observed_value=3412

Requested read-out: Rank (before). Entry: `YASNDDNDYYWVTHVRLRHL`
1909

Follow-up entry: `DPKDLQWFYERLVSLF`
3043

Follow-up entry: `YASYDDNDYYWVTHVLLRH`
1799

Follow-up entry: `PQDRERFFERLFSLF`
3490

Data origin: paper PMC11714206
